# tgt: human recombinant adrenergic α2B receptor (Homo sapiens)
# Construct: expressed in transfected cells; host or cells: CHO-K1
# Sequence (P18089 1-450): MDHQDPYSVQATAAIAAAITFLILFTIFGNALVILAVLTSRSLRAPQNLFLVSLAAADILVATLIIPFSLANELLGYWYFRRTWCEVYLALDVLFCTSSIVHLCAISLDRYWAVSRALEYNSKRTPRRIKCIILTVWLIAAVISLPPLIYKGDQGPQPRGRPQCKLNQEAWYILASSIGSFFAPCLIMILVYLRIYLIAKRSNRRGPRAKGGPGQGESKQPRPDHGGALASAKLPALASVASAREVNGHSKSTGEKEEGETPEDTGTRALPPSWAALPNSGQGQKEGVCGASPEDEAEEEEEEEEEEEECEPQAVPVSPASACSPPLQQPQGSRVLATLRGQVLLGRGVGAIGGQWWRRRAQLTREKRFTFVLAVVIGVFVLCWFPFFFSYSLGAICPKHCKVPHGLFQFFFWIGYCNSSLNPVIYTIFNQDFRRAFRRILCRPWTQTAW
# runDescription: Radioligand binding, adrenergic α2B ([3H]Rauwolscine)
# cond: compound at 0.03 μM; [3H]Rauwolscine; repeat datapoints each shown; 0.03 µM
Binning scheme for Percentage inhibition of ligand binding, Adrenergic α2B (0.03 μM): group A (below 40%), group B (40% to below 70%), group C (70% or more)

>>> classification("Cc1cnc2c(c1)c1c(n2CCc2ccc(C)nc2)CCN2CCCCC12 (single isomer, unassigned) [IV-8b]")
"group A"
>>> classification("CC(O)(Cn1c2c(c3cc(Cl)ccc31)C1CCCN1CC2)c1cccnc1 (centres unmarked) [II-130]")
"group C"
>>> classification("Cc1ccc2c(c1)c1c(n2CC(O)c2ccc(C(N)=O)cc2)CCN(C)C1 (single isomer, unassigned) [139a]")
"group C"
>>> classification("Cc1cnc2c(c1)c1c(n2CCc2ccc(C(N)=O)nc2)CCN2CCCC12 (centres unmarked) [II-243]")
"group B"
>>> classification("CC(O)(Cn1c2c(c3cc(Cl)cnc31)C1CCCN1CC2)c1cccnc1 (single isomer, unassigned) [IV-210d]")
"group C"
>>> classification("Cc1cnc2c(c1)c1c(n2CCc2ccncc2)CCN2CCCC12 (single isomer, unassigned) [II-244b]")
"group A"
>>> classification("Cc1ccc2c(c1)c1c(n2CC(N)c2ccncc2)CCN(C)CC1 (centres unmarked) [compound 154]")
"group B"
>>> classification("Cc1cc(C)c2c(c1)c1c(n2CC(O)c2ccncc2)CCN2CCCC12 (single isomer, unassigned) [II-125a]")
"group C"
>>> classification("Cc1ccc2c(c1)c1c(n2CC(OC(=O)CCC(=O)O)c2ccncc2)CCN2CCCC12 (single isomer, unassigned) [V-18a]")
"group B"
>>> classification("Cc1ccc2c(c1)c1c(n2CC(C)(N)c2cccnc2)CCN(C)C1 (single isomer, unassigned) [149b]")
"group A"
>>> classification("CNC(Cn1c2c(c3cc(C)ccc31)CN(C)CC2)c1ccncc1 (single isomer, unassigned) [151a]")
"group C"
>>> classification("Cc1cc(C)c2c(c1)c1c(n2CC(O)c2ccncc2)CCN2CCCC12 (single isomer, unassigned) [II-125b]")
"group C"
>>> classification("CN1CCc2c(c3cc(Cl)cnc3n2CC(C)(O)c2ccc(C(F)(F)F)nc2)C1 (single isomer, unassigned) [II-109b]")
"group A"
>>> classification("Cc1ccc2c(c1Cl)c1c(n2CC(C)(O)c2cccnc2)CCN(C)C1 (single isomer, unassigned) [II-124b]")
"group A"
>>> classification("Cc1cc(C)c2c(c1)c1c(n2CC(O)c2ccncc2)CCN2CCCC12 (single isomer, unassigned) [II-125c]")
"group B"
>>> classification("Cc1ccc2c(c1)c1c(n2CC(N)c2ccncc2)CCN(C)CC1 (single isomer, unassigned) [154a]")
"group A"
>>> classification("CC1Cc2c(c3cc(Cl)ccc3n2CC(C)(O)c2cccnc2)CN1C (single isomer, unassigned) [II-147c]")
"group A"
>>> classification("CC1Cc2c(c3cc(Cl)ccc3n2CC(C)(O)c2cccnc2)CN1C (single isomer, unassigned) [II-147b]")
"group B"
>>> classification("CN1CCc2c(c3cc(C(F)(F)F)ccc3n2CC(C)(O)c2cccnc2)C1 (single isomer, unassigned) [174b]")
"group A"
>>> classification("Cc1cnc2c(c1)c1c(n2CCc2cccnc2)CCN2CCCC12 (single isomer, unassigned) [134b]")
"group C"
>>> classification("Cc1ccc2c(c1)c1c(n2CC(O)c2ccncc2C)CCN(C)C1 (single isomer, unassigned) [133b]")
"group C"
>>> classification("Cc1ccc2c(c1)c1c(n2CC(C)(O)c2cccnc2)CC(C)N(C)C1 (single isomer, unassigned) [II-146c]")
"group B"
>>> classification("Cc1ccc2c(c1)c1c(n2CC(O)c2ccc(C#N)nc2)CCN(C)C1 (single isomer, unassigned) [140a]")
"group C"
>>> classification("Cc1ccc2c(c1)c1c(n2CC(N)c2ccncc2)CC2CCC1N2C (single isomer, unassigned) [155b]")
"group A"

* * *

# tgt: human recombinant adrenergic α2B receptor (Homo sapiens, UniProt P18089)
# Construct: expressed in transfected cells; host or cells: CHO-K1
# runDescription: Radioligand binding, adrenergic α2B ([3H]Rauwolscine)
# cond: compound at 0.1 μM; [3H]Rauwolscine; repeat assays, each datapoint shown; read-out: Percentage inhibition of ligand binding, Adrenergic α2B
Response key: 1 means inhibition at 0.1 µM >= 90%; -1 means inhibition at 0.1 µM < 90%.

>>> classification("Cc1ccc2c(c1)c1c(n2CCc2cccnc2)CCN(C)C1")
-1
>>> classification("Cc1ccc2c(c1)c1c(n2CC(C)(O)c2ccc(C)nc2)CCN(C)C1 (centres unmarked)")
1
>>> classification("Cc1ccc2c(c1)c1c(n2CC(O)c2ccncc2)CCN(C)C1 (centres unmarked) [compound 3]")
1
>>> classification("Cc1ccc2c(c1)c1c(n2CCc2ccccn2)CCN(C)C1")
-1
>>> classification("Cc1ccc2c(c1)c1c(n2CC(O)c2ccncc2)CN(C)CC1 (single isomer, unassigned)")
-1
>>> classification("Cc1ccc2c(c1)c1c(n2CCc2ccc(C(F)(F)F)nc2)CCN(C)C1")
-1
>>> classification("Cc1ccc2c(c1)c1c(n2CCc2ccc(CO)nc2)CCN(C)C1")
-1
>>> classification("CN1CCc2c(c3cc(Cl)ccc3n2CC(O)c2ccncc2)C1 (centres unmarked) [compound 4]")
1
>>> classification("C/C(=C\\n1c2c(c3cc(C)cnc31)CN(C)CC2)c1ccc(C)nc1")
-1
>>> classification("Cc1cnc2c(c1)c1c(n2CCc2ccc(C)nc2)CCN2CCCC12 (centres unmarked) [compound 74]")
1

* * *

Each entry below carries its recorded Percentage inhibition of ligand binding, Adrenergic α1B.
# tgt: rat adrenergic α1B receptor (Rattus norvegicus, UniProt P15823)
# Construct: rat adrenergic α1B receptor obtained from Wistar Rat liver; from tissue; host or cells: Wistar rat liver
# Sequence (P15823 1-515): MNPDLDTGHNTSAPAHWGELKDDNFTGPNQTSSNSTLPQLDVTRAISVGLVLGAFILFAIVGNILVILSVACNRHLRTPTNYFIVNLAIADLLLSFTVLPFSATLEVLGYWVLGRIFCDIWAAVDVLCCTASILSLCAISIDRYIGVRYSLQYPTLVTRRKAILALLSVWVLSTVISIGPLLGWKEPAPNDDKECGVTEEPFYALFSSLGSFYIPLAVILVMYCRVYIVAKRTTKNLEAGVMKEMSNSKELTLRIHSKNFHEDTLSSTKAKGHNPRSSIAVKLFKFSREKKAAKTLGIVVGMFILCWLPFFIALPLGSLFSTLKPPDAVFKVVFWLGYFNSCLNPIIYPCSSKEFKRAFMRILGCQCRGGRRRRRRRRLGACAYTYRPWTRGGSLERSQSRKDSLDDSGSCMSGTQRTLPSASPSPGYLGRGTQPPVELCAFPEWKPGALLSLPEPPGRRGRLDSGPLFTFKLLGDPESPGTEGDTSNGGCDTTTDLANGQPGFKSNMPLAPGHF
# runDescription: Radioligand binding, adrenergic α1B ([3H]Prazosin)
# cond: compound at 0.1 μM; [3H]Prazosin; repeat assays, each datapoint shown; 0.1 µM
quantityName: Percentage inhibition of ligand binding, Adrenergic α1B (%)

>>> reading("Cc1ccc2c(c1)c1c(n2CC(C)(O)c2ccc(C)nc2)CCN(C)C1 (stereo not shown) [29b]")
14
>>> reading("CN1CCc2c(c3cc(Cl)ccc3n2CC(O)c2ccncc2)C1 (single isomer, unassigned) [4b]")
58
>>> reading("CN1CCc2c(c3ccc(C(F)(F)F)cc3n2CC(O)c2cccnc2)C1 (single isomer, unassigned) [40b]")
"−2"
>>> reading("Cc1cnc2c(c1)c1c(n2CCc2ccc(C)nc2)CCN2CCCC12 (single isomer, unassigned) [74a]")
96
>>> reading("Cc1ccc2c(c1)c1c(n2CC(O)c2ccncc2)CC2CCCCN2C1 (racemic) [75d]")
26
>>> reading("Cc1ccc2c(c1)c1c(n2CC(O)c2ccncc2)CCN2CCCCC12 (single isomer, unassigned) [47a]")
58
>>> reading("Cc1ccc2c(c1)c1c(n2CC(O)c2ccncc2)CCN(C)C1 (stereo not shown) [compound 3]")
54
>>> reading("Cc1ccc2c(c1)c1c(n2CC(O)c2ccncc2)CC2CCCN2C1 (single isomer, unassigned) [76b]")
71
>>> reading("Cc1ccc2c(c1)c1c(n2CC(O)c2ccncc2)CN(C)CC1 (single isomer, unassigned) [8b]")
63
>>> reading("CN1CCc2c(c3cccc(Br)c3n2CC(O)c2ccncc2)C1 (single isomer, unassigned) [48b]")
14
>>> reading("Cc1ccc2c(c1)c1c(n2CC(O)c2ccc(C(=O)N(C)C)cc2)CCN(C)C1 (single isomer, unassigned) [52b]")
73
>>> reading("Cc1ccc2c(c1)c1c(n2CC(C)(O)c2ccc(F)cc2)CCN(C)C1 (single isomer, unassigned) [90b]")
81
>>> reading("CN1Cc2c(n(CC(O)c3ccncc3)c3ncccc23)C(C)(C)C1 (single isomer, unassigned) [17b]")
16
>>> reading("Cc1ccc2c(c1)c1c(n2CC2(c3ccccc3)OCCO2)CCN(C)C1 [compound 83]")
15
>>> reading("OC(Cn1c2c(c3cccnc31)CN1CCCC1C2)c1ccncc1 (single isomer, unassigned) [37c]")
2
>>> reading("OC(Cn1c2c(c3cccnc31)CN1CCCC1C2)c1ccncc1 (single isomer, unassigned) [37b]")
"−10"
